B1: library; a variant is named by its letters at N, in order (parent)
chain: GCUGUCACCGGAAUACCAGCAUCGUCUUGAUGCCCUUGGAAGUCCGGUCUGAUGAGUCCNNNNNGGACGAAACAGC

Variants of: B1
protocol_text: normalized RNA/DNA level with ligand (relative to sTRSVctl = 100) (log10 (% of sTRSVctl)); higher = less ribozyme self-cleavage, higher mRNA level
recorded_conditions: ligand concentration (+) RNA-Seq: 5 mM, HEK293T, reporter: mCherry (pCS4076), ligand present: yes
Would you mind telling me the reported normalized RNA/DNA level with ligand (log10) of each entry?
Answers are plain numbers.

For each of the variants below, state normalized RNA/DNA level with ligand (log10).
1. AUGGC
2. AAGAU
3. UCUUG
4. UUGAC

[reply]
1: 2.01; 2: 1.97; 3: 1.94; 4: 2.05

For each of the variants below, state normalized RNA/DNA level with ligand (log10).
1. CUUCC
2. CUGGA
3. UUACC
4. CGGCC

[reply]
1: 2.02; 2: 2.02; 3: 2.02; 4: 2.06

For each of the variants below, state normalized RNA/DNA level with ligand (log10).
1. AGGGC
2. UCAAG

[reply]
1. 1.95
2. 2.03
